- systemName: recombinant truncated mouse furin (mouse) (UniProt P23188)
- Sequence (P23188 108-714): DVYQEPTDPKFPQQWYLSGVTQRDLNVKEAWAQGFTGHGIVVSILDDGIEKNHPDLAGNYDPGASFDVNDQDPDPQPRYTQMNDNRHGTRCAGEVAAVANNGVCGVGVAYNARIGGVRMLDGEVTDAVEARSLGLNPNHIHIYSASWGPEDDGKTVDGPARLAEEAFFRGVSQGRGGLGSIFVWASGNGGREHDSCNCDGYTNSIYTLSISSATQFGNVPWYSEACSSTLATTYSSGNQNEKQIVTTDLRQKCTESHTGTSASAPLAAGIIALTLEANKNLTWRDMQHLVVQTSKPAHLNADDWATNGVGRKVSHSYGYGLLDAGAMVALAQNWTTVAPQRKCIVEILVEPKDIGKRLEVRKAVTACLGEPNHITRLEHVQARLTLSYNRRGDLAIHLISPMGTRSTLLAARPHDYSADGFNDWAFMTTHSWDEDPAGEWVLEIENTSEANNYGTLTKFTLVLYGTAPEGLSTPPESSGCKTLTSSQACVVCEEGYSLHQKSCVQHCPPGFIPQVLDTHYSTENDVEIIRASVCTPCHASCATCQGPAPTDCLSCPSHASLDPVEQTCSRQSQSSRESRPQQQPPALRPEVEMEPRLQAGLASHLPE
- protocolNotes: enzyme inhibition, pERTKR-MCA hydrolysis (fluorescence), competitive Ki
Non-standard residues stand in square brackets, D forms with d.
Listed binders paired with reported Ki
Record the value in µM, omitting the unit from your answer.

Worked cases, Ki given:
Prompt: Answer with reported Ki of Ac-[dW][dR][dR][dR][dR][dR]-NH2 (SMILES CC(=O)N[C@H](Cc1c[nH]c2ccccc12)C(=O)N[C@H](CCCNC(=N)N)C(=O)N[C@H](CCCNC(=N)N)C(=O)N[C@H](CCCNC(=N)N)C(=O)N[C@H](CCCNC(=N)N)C(=O)N[C@H](CCCNC(=N)N)C(N)=O) [Ac-wrrrrr-NH2]
Response: 2.4

Prompt: Name the recorded Ki of the binder listed here: Ac-[dW][dR][dR][dR][dR][dL]-NH2 (SMILES CC(=O)N[C@H](Cc1c[nH]c2ccccc12)C(=O)N[C@H](CCCNC(=N)N)C(=O)N[C@H](CCCNC(=N)N)C(=O)N[C@H](CCCNC(=N)N)C(=O)N[C@H](CCCNC(=N)N)C(=O)N[C@H](CC(C)C)C(N)=O) [Ac-wrrrrl-NH2]
Response: 5.3

Prompt: Answer with reported Ki of Ac-[dW][dR][dR][dR][dI][dR]-NH2 (SMILES CC[C@@H](C)[C@@H](NC(=O)[C@@H](CCCNC(=N)N)NC(=O)[C@@H](CCCNC(=N)N)NC(=O)[C@@H](CCCNC(=N)N)NC(=O)[C@@H](Cc1c[nH]c2ccccc12)NC(C)=O)C(=O)N[C@H](CCCNC(=N)N)C(N)=O) [Ac-wrrrir-NH2]
Response: 7

Now take the following binder into account.
Prompt: Check the records and state Ki for Ac-[dW][dR][dR][dR][dI][dL]-NH2 (SMILES CC[C@@H](C)[C@@H](NC(=O)[C@@H](CCCNC(=N)N)NC(=O)[C@@H](CCCNC(=N)N)NC(=O)[C@@H](CCCNC(=N)N)NC(=O)[C@@H](Cc1c[nH]c2ccccc12)NC(C)=O)C(=O)N[C@H](CC(C)C)C(N)=O) [Ac-wrrril-NH2]
Response: 22.7
